# test-details: Pharmacokinetics of almonertinib in rats, alone and after multiple doses of rivaroxaban or apixaban
# Type: in vivo, Sprague-Dawley (SD) rats
# particulars: male, Sprague-Dawley, rat, plasma, po, 15 mg/kg, rats, oral almonertinib 15 mg/kg alone (group 3, control solvent of rivaroxaban), mean ± SD, n = 6; read-out: Vz/F
measurement-label: Vd/F (L/kg)
Record the value in L/kg, omitting the unit from your answer.

Query: So what does the record say about Vd/F for C=CC(=O)Nc1cc(Nc2nccc(-c3cn(C4CC4)c4ccccc34)n2)c(OC)cc1N(C)CCN(C)C [almonertinib, Almonertinib] ?
Result: 331

###

# test-details: Pharmacokinetics of almonertinib in rats, alone and after multiple doses of rivaroxaban or apixaban
# Format: in vivo, Sprague-Dawley (SD) rats
# particulars: male, Sprague-Dawley, rat, plasma, po, 15 mg/kg, rats, oral almonertinib 15 mg/kg alone (group 3, control solvent of rivaroxaban), mean ± SD, n = 6; read-out: MRT0-t
measurement-label: MRT last (h)
# number only, unit h dropped from output

Query: If you can, please state the reported MRT last value of C=CC(=O)Nc1cc(Nc2nccc(-c3cn(C4CC4)c4ccccc34)n2)c(OC)cc1N(C)CCN(C)C [almonertinib, Almonertinib] .
Result: 5.03
